- assayed-system: Adenosine receptor A2a (Homo sapiens, UniProt P29274)
- Sequence (P29274 whole entry): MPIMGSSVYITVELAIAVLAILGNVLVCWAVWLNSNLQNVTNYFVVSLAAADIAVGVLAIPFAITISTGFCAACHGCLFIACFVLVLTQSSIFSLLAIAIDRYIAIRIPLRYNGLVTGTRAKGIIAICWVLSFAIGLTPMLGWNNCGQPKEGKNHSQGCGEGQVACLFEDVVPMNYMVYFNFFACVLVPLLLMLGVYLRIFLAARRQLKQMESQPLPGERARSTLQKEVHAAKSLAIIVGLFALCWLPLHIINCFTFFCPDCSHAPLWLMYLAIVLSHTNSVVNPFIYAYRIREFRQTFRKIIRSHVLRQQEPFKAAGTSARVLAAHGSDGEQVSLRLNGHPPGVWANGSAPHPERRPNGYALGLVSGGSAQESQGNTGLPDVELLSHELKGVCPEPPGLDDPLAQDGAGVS
pKi: −log10 of the molar value.
measurement-type: pKi

>>> test_value("COc1ccc(Cl)cc1CNc1nc(-n2cc(CC3CCCC3)nn2)nc2c1ncn2[C@@H]1O[C@H](CO)[C@@H](O)[C@H]1O")
5.22

###

- assayed-system: Adenosine receptor A3 (Rattus norvegicus, UniProt P28647)
- Sequence (P28647 whole entry): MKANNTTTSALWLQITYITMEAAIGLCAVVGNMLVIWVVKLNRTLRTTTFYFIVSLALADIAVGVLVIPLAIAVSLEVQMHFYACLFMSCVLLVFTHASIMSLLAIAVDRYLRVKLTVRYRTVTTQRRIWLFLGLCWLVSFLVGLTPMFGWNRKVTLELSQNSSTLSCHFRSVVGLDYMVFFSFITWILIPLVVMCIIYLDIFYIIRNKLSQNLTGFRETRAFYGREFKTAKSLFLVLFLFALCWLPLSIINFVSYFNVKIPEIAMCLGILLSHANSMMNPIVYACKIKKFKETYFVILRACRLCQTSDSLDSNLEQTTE
measurement-type: Ki

>>> test_value("CCCOc1ccc(-c2cn(-c3nc(NC)c4ncn([C@@H]5O[C@H](CO)[C@@H](O)[C@H]5O)c4n3)nn2)cc1")
"> 10 µM"
>>> test_value("CNc1nc(-n2cc(CC3CCCC3)nn2)nc2c1ncn2[C@@H]1O[C@H](CO)[C@@H](O)[C@H]1O")
"0.312 µM"
>>> test_value("CNc1nc(-n2cc(CN(C)C)nn2)nc2c1ncn2[C@@H]1O[C@H](CO)[C@@H](O)[C@H]1O")
"> 10 µM"
